src = ChEMBL document CHEMBL1201862

GI50 reference
tested on: HOP-62; experiment: NCI tumour cell line growth inhibition, 48 h
Calls of active or inactive are those of the source. Cut-off read from the data, not from the text of the source: active = GI50 up to about 1.1 µM and inactive = higher.
readout_label: GI50

{"columns": ["molecule", "result"],
 "data": [
  ["O=c1cc(NNc2ccc(F)cc2)[nH]c(=O)[nH]1", "17.1 µM (inactive)"],
  ["COc1ccc(C(=O)NCCC2=CCCCC2)cc1", "> 100 µM (inactive)"],
  ["CCN(CC)CCN(/C(=N/c1ccccc1)N1CCOCC1)c1ccccc1", "74.6 µM (inactive)"],
  ["O=S(=O)(c1cccc(N=C=S)c1)c1cccc(N=C=S)c1", "11.3 µM (inactive)"],
  ["Nc1ccc(Oc2ccc(C34CC5CC6C3CC3CC4C(C5)C6(c4ccc(Oc5ccc(N)cc5)cc4)C3)cc2)cc1", "18.3 µM (inactive)"],
  ["COCc1cc2c(cc1/C=C/[N+](=O)[O-])OCO2", "20.7 µM (inactive)"],
  ["COc1ccc(N(C)Sc2ccccc2)cc1", "95.5 µM (inactive)"],
  ["Nc1nc(SCCc2ccccc2)c2nc[nH]c2n1", "50.5 µM (inactive)"],
  ["Cc1cc(NS(=O)(=O)c2ccc(Nc3c4ccccc4nc4c(C(=O)Nc5ccc(S(=O)(=O)N=C(N)N)cc5)ccc(Cl)c34)cc2)no1", "22.1 µM (inactive)"],
  ["COC(=S)OC1CC(n2cnc3c(N)ncnc32)OC1CO[Si](C)(C)C(C)(C)C (configuration not stated)", "16 µM (inactive)"],
  ["Cc1cc(C23OC4COC(C)(C)OC4C2OC(C)(C)O3)nc2ccccc12 (configuration not stated)", "> 100 µM (inactive)"],
  ["COc1ccc(/C=C/C(=O)c2sc(-n3nc(-c4ccccc4)cc3-c3ccccc3)nc2C)cc1", "> 10 µM (inactive)"],
  ["COc1nc2cccc(C(O)c3ccccc3)c2nc1-c1ccccc1 (configuration not stated)", "3.78 µM (inactive)"],
  ["CC(=O)Nc1nc2c(=O)c3ccccc3sc2s1", "> 100 µM (inactive)"],
  ["CN1c2ccccc2S(=O)(=O)n2c(CCc3ccccc3)nnc21", "41.2 µM (inactive)"],
  ["COc1ccc2c(c1)CCc1c-2n(CCN2CCOCC2)c2ccc(OC)cc12", "> 100 µM (inactive)"],
  ["CN1C2CCC1CC(=CCOC(c1ccc(F)cc1)c1ccc(F)cc1)C2", "17.7 µM (inactive)"],
  ["COc1ccc(O)c(C(=O)CCC(=O)O)c1", "> 10 µM (inactive)"],
  ["CC12N=NN(c3ccc([N+](=O)[O-])cc3)C1(O)c1ccccc1C2=O (configuration not stated)", "> 100 µM (inactive)"],
  ["CC(=O)OC1CC2(C)C(=CC1C1SCCS1)CCC1C2CCC2(C)C(OC(C)=O)CCC12 (configuration not stated)", "97.5 µM (inactive)"],
  ["CN(C)c1ccc2c(c1)C(=O)N(OS(=O)(=O)c1ccc([N+](=O)[O-])cc1)C2=O", "37.1 µM (inactive)"],
  ["O=c1[nH]c2ccccc2c2nc3ccccc3n12", "38.1 µM (inactive)"]
]}

---

test system: MOLT-4; assay: NCI tumour cell line growth inhibition, 48 h
Active and inactive are the calls of the source. No stated cut-off is given here; in the data, active = GI50 up to about 1.1 µM and inactive = higher.
Outcome codes: active, inactive

{"columns": ["compound", "study_system", "class_name"],
 "data": [
  ["COc1ccc(/C=C/C(=O)c2sc(-n3nc(-c4ccccc4)cc3-c3ccccc3)nc2C)cc1", "MOLT-4", "inactive"],
  ["CCCCC1Cc2cc(O)ccc2-c2n1c1cc(O)ccc1[n+]2C.CCCCC1Cc2cc(O)ccc2-c2n1c1ccc(O)cc1[n+]2C (stereo not drawn)", "MOLT-4", "inactive"],
  ["C=C1C(=O)O[C@H]2[C@H]1[C@@H](OC(=O)C=C(C)C)CC1=C[C@@H](C[C@@]3(C)O[C@@H]23)OC1=O", "MOLT-4", "inactive"],
  ["COCc1cc2c(cc1/C=C/[N+](=O)[O-])OCO2", "MOLT-4", "inactive"],
  ["CN(C)CCNC(=O)c1cccc2c1nc(-c1ccccn1)c1ccccc12", "MOLT-4", "inactive"],
  ["COC(=S)OC1CC(n2cnc3c(N)ncnc32)OC1CO[Si](C)(C)C(C)(C)C (stereo not drawn)", "MOLT-4", "inactive"],
  ["COC1OC(C)/C(=N/O)C2OC(C)(C)OC12 (stereo not drawn)", "MOLT-4", "inactive"],
  ["COc1ccc(/C=C/c2nsc(/C=C/c3ccc(OC)cc3)n2)cc1", "MOLT-4", "inactive"],
  ["COC(=O)/C=C\\n1c(C)cc(=O)[nH]c1=O", "MOLT-4", "inactive"],
  ["CC[N+](C)(CC)Cc1ccccc1[N+](=O)[O-]", "MOLT-4", "inactive"],
  ["COc1ccc(N2C(=O)[C@H]3[C@H]4CC(C(C)(C)C)CC[C@H]4c4c(n(C)c5ccccc45)[C@H]3C2=O)cc1 (stereo partly drawn)", "MOLT-4", "inactive"],
  ["O=C1C=Cc2c1csc2Br", "MOLT-4", "inactive"],
  ["CN[C@@H](Cc1cccc2ccccc12)C(=O)N[C@@H](CC(C)C)B(O)O", "MOLT-4", "active"],
  ["O=C(O)C1CC2(C1)CC(C(=O)O)C2 (stereo not drawn)", "MOLT-4", "inactive"],
  ["CCN1CCC(O)(c2ccc(C)cc2)C(C(=O)c2ccc(C)cc2)C1 (stereo not drawn)", "MOLT-4", "inactive"],
  ["C/C(CCn1[nH]c(=O)ccc1=O)=N\\N=C(N)N", "MOLT-4", "inactive"],
  ["COc1ccc(OC)c(NC(=O)CCC/C(CC(=O)c2ccc(O)c(OC)c2)=N\\NC(=O)C[N+](C)(C)C)c1", "MOLT-4", "inactive"],
  ["COc1cc(/C=C/C(=O)c2ccc(NS(=O)(=O)c3cc([N+](=O)[O-])ccc3C)cc2)cc(OC)c1OC", "MOLT-4", "inactive"],
  ["C[C@@H]1C(=O)CC2(O)[C@@]13C[C@@H](OC(=O)[C@@H]3O)[C@@H](C)[C@@]21COC1=O (stereo partly drawn)", "MOLT-4", "inactive"],
  ["CC1(Cl)CC2OC3(Br)C=CC(C)(O)C2(CC1Br)C3(C)C (stereo not drawn)", "MOLT-4", "inactive"],
  ["CCn1cnc2c(=S)nc(N)[nH]c21", "MOLT-4", "inactive"],
  ["CC(C)c1c(P(=O)(c2ccccc2)c2ccccc2)n(C)c2ccccc12", "MOLT-4", "inactive"],
  ["O=C(/C=C/c1ccccc1)N1CCCCC1", "MOLT-4", "inactive"],
  ["Cc1ccc(S(=O)(=O)c2c(N)n(CCN(C)C)c3nc4ccccc4nc23)cc1", "MOLT-4", "inactive"],
  ["COC(=O)C1=C(C)N2CCOC2(C)C(C(=O)OC)C1c1ccc[nH]1 (stereo not drawn)", "MOLT-4", "inactive"],
  ["COC(=O)/C=C/c1cc(O)c2c(c1)[C@H](C(=O)OC)[C@@H](c1ccc(O)c(O)c1)O2", "MOLT-4", "active"],
  ["CCn1c(CSc2nc(-c3ccccc3)c(-c3ccccc3)[nH]2)n[nH]c1=S", "MOLT-4", "inactive"],
  ["Cc1cc(S(=O)(=O)Nc2nc(Nc3ccccc3)n[nH]2)c(SSc2cc(Cl)c(C)cc2S(=O)(=O)Nc2nc(Nc3ccccc3)n[nH]2)cc1Cl", "MOLT-4", "inactive"],
  ["C[C@@H]1[C@@H]2[C@@H](C=C3C4CCC5Cc6nc7c(nc6C[C@@]5(C)C4C[C@H](O)[C@]32CO)CC2CCC3C4=C[C@H]5O[C@@]6(OC(C)(CO)C[C@@H]6O)[C@H](C)[C@@]5(O)[C@]4(C)[C@@H](O)CC3[C@]2(C)C7)O[C@]12CCC(C)(C)O2 (stereo partly drawn)", "MOLT-4", "active"],
  ["Cc1cc(O)c(C=O)c2c1C(=O)Oc1c(CO)c(O)c3c(c1O2)C(O)OC3=O (stereo not drawn)", "MOLT-4", "inactive"],
  ["COC(=O)c1cc(NC2OCC(OC(C)=O)C(OC(C)=O)C2OC(C)=O)nc(SC)c1C(=O)OC (stereo not drawn)", "MOLT-4", "inactive"],
  ["CCN(CC)CCNc1ccc2ncn3c4cc(OC)c(OC)c(O)c4c(=O)c1c23", "MOLT-4", "active"],
  ["CC(=O)OC1(C(C)=O)CC2(c3ccccc3)OC1(c1ccccc1)c1ccccc12 (stereo not drawn)", "MOLT-4", "inactive"],
  ["COc1cccc(C2C(C(=O)O)=C(CO)Oc3cc4c(cc32)OCO4)c1OC (stereo not drawn)", "MOLT-4", "inactive"],
  ["COc1nc2cccc(C(O)c3ccccc3)c2nc1-c1ccccc1 (stereo not drawn)", "MOLT-4", "inactive"],
  ["O=C(OCc1ccccc1)C(Cc1ccccc1)N(Cc1ccccc1)Cc1ccccc1 (stereo not drawn)", "MOLT-4", "inactive"],
  ["CCOC(=O)C1=C(C)N(Cc2ccccc2)C2(O)C(OC)CC(=O)C3C(=O)N(c4ccccc4)C(=O)C132 (stereo not drawn)", "MOLT-4", "inactive"],
  ["O=C(Nc1ccc(Br)cc1)C(=O)C(C(=O)c1ccccc1F)C1OC(=O)c2ccccc21 (stereo not drawn)", "MOLT-4", "inactive"]
]}
